# ASSAYED TARGET: T1, oligopeptide IFATYPSGHLDM (SEQ ID NO: 108)
# T1 construct: Synthetic peptide, part of Loop C of AQP3
# T1 peptide: IFATYPSGHLDM
# PROCEDURE DETAILS: ELISA on coated peptide
OBSERVABLE: binding signal (plate reader)
A bare number is all that is needed in reply.

Below, 2 binders whose answers are already recorded.
[[record]]
binder = "SC-F8 (IgG) (antibody, V domains shown, also called anti AQP3 antibody SC-F8) VH: QTVKESGGRLVTPGGSLTLTCTVSRFSLSNYAMTWVRQAPGKGLEWIGIINNDGISSTWYASWVKGRFTISKTSTTMDLKMTSLTTEDTATYFCARGGTSGYDIWGPGTLVTVSL VL: AQVLTQTPSPVSAAVGGTVTINCQSSPSVYKNYLSWYQQKPGQPPKLLIYGASTLASGVPSRFKGSGSGTQFTLTISDVQCDDAATYYCAGGYRGSSDIFAFGGGTEVVVK"
reading = 3.91

[[record]]
binder = "Antibody C (antibody, mouse IgG2a, kappa, V domains shown, also called anti AQP3 antibody C) VH: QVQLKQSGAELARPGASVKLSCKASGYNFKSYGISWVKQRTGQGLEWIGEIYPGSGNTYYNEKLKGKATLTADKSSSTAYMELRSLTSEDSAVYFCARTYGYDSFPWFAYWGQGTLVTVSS VL: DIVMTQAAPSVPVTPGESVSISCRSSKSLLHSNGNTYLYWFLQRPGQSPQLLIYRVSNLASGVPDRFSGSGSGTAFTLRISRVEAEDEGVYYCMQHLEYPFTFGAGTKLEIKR"
reading = 2.8


Input line: So what's the measured binding signal (plate reader) for this one? BC-H9 (IgG) (antibody, V domains shown, also called anti AQP3 antibody BC-H9) VH: QSLEESGGRLVTPGTPLTLTCTVSGFSLYTYAMGWVRQAPGKGLEWIGIINNDGISSTWYASWVKGRFTISKTSTTMDLKMTSLTTEDTATYFCARGGTSGYDIWGPGTLVTVSL VL: AQGLTQTPSPVSAAVGGTVTINCQSGPSVYKNYLSWYQQKAGQPPKLLIYGASTLASGVPSRFKGSGSGTQFTLTISDVQCDDAATYYCAGGYRGSSDIFAFGGGTEVVVK
Output line: 3.76
